# System: MDA-N
# TEST_DESCRIPTION: NCI tumour cell line growth inhibition, 48 h
compounds and their reported TGI

C[C@H]1[C@H](C)CC[C@]2(C(=O)OC3OC(CO)C(O)C(O)C3O)CC[C@]3(C)C(=CC[C@@H]4[C@@]5(C)C[C@H]6OC(=O)c7cc(O)c(O)c(O)c7-c7c(cc(O)c(O)c7O)C(=O)O[C@@H]6C(CO)(CO)[C@@H]5CC[C@]43C)[C@H]12 (stereo partly drawn) | 72.7 µM
O=C(OCC1OC(n2nc(Cn3nnc(-c4cccnc4)n3)n(-c3cccc4ccccc34)c2=S)C(OC(=O)c2ccccc2)C1OC(=O)c1ccccc1)c1ccccc1 (stereo not drawn) | > 100 µM
CCOC(=O)C(NC(=O)Nc1ccc(Cl)cc1)(OC)C(F)(F)F (stereo not drawn) | > 100 µM
S=C1NC2=C(CSC/C2=C\c2ccccc2)C(c2ccccc2)N1 (stereo not drawn) | > 100 µM
Cc1ccc(NC(=O)/C(Cc2nc3ccc([N+](=O)[O-])cc3[nH]c2=O)=N\NC(=O)C[n+]2ccccc2)c(C)c1 | > 100 µM

Reported TGI for CCN1C(=O)C(=C/C=C/c2ccc(N(CC)CC)cc2)C(=O)N(CC)C1=S was > 100 µM

Reported TGI for Clc1ccc(/C(=C\c2ccccc2)Cn2ccnc2)cc1 was 39 µM

Reported TGI for CON(C)C(=O)C1CCCO1 (stereo not drawn) was > 100 µM

* * *

# Tested on: NCI-H23 lung
# TEST_DESCRIPTION: NCI tumour cell line growth inhibition, 48 h
molecules and their reported TGI

Cc1cccc(C)c1N1C(=O)C(=O)C(c2nc3ccccc3s2)/C(=N/NC(=O)NN)C1=O (stereo not drawn) | > 100 µM
COc1ccc(C(=O)c2nc3ccccc3n2CC(=O)c2ccc(Cl)cc2)cc1 | > 100 µM

// next item, TGI requested
Reported TGI for COc1ccc(/C=N/n2c(C)nc3c(sc(=S)n3-c3ccccc3)c2=O)cc1 was > 100 µM

* * *

# Tested on: SK-MEL-2 melanoma
# TEST_DESCRIPTION: NCI tumour cell line growth inhibition, 48 h
Cut-off 30 µM on TGI, inclusive. At or above means class 1; below means class 0.

As a guide, the following entries are already answered.
Cc1ccc(NC(=O)/C(Cc2nc3ccc([N+](=O)[O-])cc3[nH]c2=O)=N\NC(=O)C[n+]2ccccc2)c(C)c1 | class 1
O=C1c2cccc3cccc(c23)C(=O)N1O | class 1
CSc1nc2c(ncn2C2OC(CO)C(O)C(O)C2O)c(=O)[nH]1 (stereo not given) | class 1
Clc1nncc2sc(-c3ccccc3)nc12 | class 1
O=[N+]([O-])c1ccc(-c2cc3c(Nc4ccc(Cl)c(C(F)(F)F)c4)ncnc3s2)cc1 | class 0

Enquiry: Item COc1cc(CNc2nc3ccc(C(F)(F)F)cc3nc2-c2ccccc2)cc(OC)c1OC with TGI of 30 µM or above?
Return: class 1

Enquiry: Item COC(=O)c1ccc2c(c1)C(=O)c1c-2n(CCCN=[N+]=[N-])c(=O)c2cc([N+](=O)[O-])ccc12 with TGI of 30 µM or above?
Return: class 1

Enquiry: Item O=[N+]([O-])c1ccc2c(c1)c(N=NC(=S)Nc1ccc(Cl)cc1)c(O)n2CN1CCOCC1 with TGI of 30 µM or above?
Return: class 0

Enquiry: Item COc1cc2nc(-c3ccc(C(F)(F)F)cc3)cc(OCCCN3CCCC3)c2cc1OC with TGI of 30 µM or above?
Return: class 0
